Assay: Open-label single-dose PK study in participants with hepatic impairment and normal hepatic function
Format: in vivo, human
Details: human, in vivo, po, 1.2 mg, GeoMean, Cohort 2: normal hepatic function, single 1.2 mg oral dose softgel capsules, N 8
ENDPOINT_NAME: Cmax (ng/mL)
Numbers only, in ng/mL.

Query block: Can you share its Cmax? I mean this molecule: "C[C@H](CC[C@](C)(O)C(F)(F)F)[C@H]1CC[C@H]2[C@@H]3CC=C4C[C@@](C)(O)CC[C@]4(C)[C@H]3CC[C@]12C"
Result block: 15.7

---

Assay: Open-label single-dose PK study in participants with hepatic impairment and normal hepatic function
Type: in vivo, human
Settings: human, in vivo, po, 1.2 mg, GeoMean, Cohort 2: normal hepatic function, single 1.2 mg oral dose softgel capsules, N 7; read-out: Vz/F
ENDPOINT_NAME: Vd/F (L)
One number for each entry, in L.

Query block: Can you share its Vd/F? I mean this molecule: "C[C@H](CC[C@](C)(O)C(F)(F)F)[C@H]1CC[C@H]2[C@@H]3CC=C4C[C@@](C)(O)CC[C@]4(C)[C@H]3CC[C@]12C"
Result block: 151

---

Experiment: Open-label single-dose PK study in participants with hepatic impairment and normal hepatic function
Format: in vivo, human
Details: human, in vivo, po, 1.2 mg, GeoMean, Cohort 1: moderate hepatic impairment (Child-Pugh Class B), single 1.2 mg oral dose softgel capsules, N 8
ENDPOINT_NAME: Cmax (ng/mL)
One number for each entry, in ng/mL.

Query block: Can you share its Cmax? I mean this compound: C[C@H](CC[C@](C)(O)C(F)(F)F)[C@H]1CC[C@H]2[C@@H]3CC=C4C[C@@](C)(O)CC[C@]4(C)[C@H]3CC[C@]12C [Compound I]
Result block: 12.2

---

Experiment: Open-label single-dose PK study in participants with hepatic impairment and normal hepatic function
Type: in vivo, human
Conditions: human, in vivo, po, 1.2 mg, GeoMean, Cohort 1: moderate hepatic impairment, single 1.2 mg oral dose softgel capsules, N 8
ENDPOINT_NAME: Tmax
Answer with the value and then the unit.

Query block: Can you share its Tmax? I mean this compound: "C[C@H](CC[C@](C)(O)C(F)(F)F)[C@H]1CC[C@H]2[C@@H]3CC=C4C[C@@](C)(O)CC[C@]4(C)[C@H]3CC[C@]12C"
Result block: 3.69 h

---

Experiment: Open-label single-dose PK study in participants with hepatic impairment and normal hepatic function
Assay type: in vivo, human
Details: human, in vivo, po, 1.2 mg, GeoMean, Cohort 1: moderate hepatic impairment, single 1.2 mg oral dose softgel capsules, N 8; read-out: Vz/F
ENDPOINT_NAME: Vd/F
Answer with the value and then the unit.

Query block: Can you share its Vd/F? I mean this compound: "C[C@H](CC[C@](C)(O)C(F)(F)F)[C@H]1CC[C@H]2[C@@H]3CC=C4C[C@@](C)(O)CC[C@]4(C)[C@H]3CC[C@]12C"
Result block: 153 L

---

Assay: Open-label single-dose PK study in participants with hepatic impairment and normal hepatic function
Format: in vivo, human
Conditions: human, in vivo, po, 1.2 mg, GeoMean, Cohort 2: normal hepatic function, single 1.2 mg oral dose softgel capsules, N 8
ENDPOINT_NAME: Tmax (h)
Answers are plain numbers, in h.

Query block: Can you share its Tmax? I mean this molecule: C[C@H](CC[C@](C)(O)C(F)(F)F)[C@H]1CC[C@H]2[C@@H]3CC=C4C[C@@](C)(O)CC[C@]4(C)[C@H]3CC[C@]12C [Compound I]
Result block: 3.99
